- Read-out: Cyclin Dependent Kinase Inhibitor 1A (CDKN1A), CDKN1A (gene 1026)
- procedure.summary: LTEA_HepaRG_CDKN1A: Life Technologies and Expression Analysis (LTEA) Assay for Cyclin Dependent Kinase Inhibitor 1A (CDKN1A) using HepaRG (AID 2283450)
- measurement.setup: mRNA level, 48 h; actives raise or lower the signal
Activity calls are given as the source filed them. How the source made its calls: active means hit-call score of the fitted dose curve at least 0.9, where 1 is the maximum; inactive means score below 0.9.
Please answer using one outcome listed in 1 for active, -1 for inactive

# compound, group.label
measured = [
    ("CCOc1cc(Oc2ccc(C(F)(F)F)cc2Cl)ccc1[N+](=O)[O-]", -1),
]

Prompt: Which outcome was entered for the compound CCOC(=O)C(Cl)Cc1cc(-n2nc(C)n(C(F)F)c2=O)c(F)cc1Cl (stereo not drawn) in this test?
Response: -1

Prompt: Which outcome was entered for the compound `CCc1nn(C)c(C(=O)NCc2ccc(C(C)(C)C)cc2)c1Cl` in this test?
Response: 1

Prompt: Which outcome was entered for the compound COP(N)(=O)SC (stereo not drawn) in this test?
Response: -1

----------
- assay.target: Cytochrome P450 2C18 (Homo sapiens)
- procedure.summary: NVS_ADME_hCYP2C18: NovaScreen (NVS) CYP450-related Enzyme Activity (ADME) Assay for human CYP2C18 (AID 2283103)
Activity calls are given as the source filed them. The calls were made as follows: active = hit-call score of the fitted dose curve at least 0.9, where 1 is the maximum; inactive = score below 0.9.
Please answer using one outcome listed in yes for active, no for inactive

# compound, group.label
rows = [
    ("CCOC(=O)C(Cl)Cc1cc(-n2nc(C)n(C(F)F)c2=O)c(F)cc1Cl (stereo not given)", "no"),
    ("CCCCC(CC)COC(=O)c1ccccc1C(=O)OCC(CC)CCCC (stereo not given)", "no"),
    ("COP(=S)(OC)Oc1nc(Cl)c(Cl)cc1Cl", "no"),
    ("Cc1ccc(-c2c(Cl)nc(C#N)n2S(=O)(=O)N(C)C)cc1", "yes"),
    ("CCOP(=S)(OCC)SCn1c(=O)oc2cc(Cl)ccc21", "yes"),
]

Prompt: Which outcome was entered for the compound N#CC(CCc1ccc(Cl)cc1)(Cn1cncn1)c1ccccc1 (stereo not given) in this test?
Response: yes

Prompt: Which outcome was entered for the compound CCOC(=O)CC(SP(=S)(OC)OC)C(=O)OCC (stereo not given) in this test?
Response: yes

Prompt: Which outcome was entered for the compound `CCCN(CCC)c1c([N+](=O)[O-])cc(S(N)(=O)=O)cc1[N+](=O)[O-]` in this test?
Response: yes

Prompt: Which outcome was entered for the compound `CO/C=C(/C(=O)OC)c1ccccc1Oc1cc(Oc2ccccc2C#N)ncn1` in this test?
Response: yes

Prompt: Which outcome was entered for the compound CC1COC(Cn2cncn2)(c2ccc(Oc3ccc(Cl)cc3)cc2Cl)O1 (stereo not given) in this test?
Response: yes

----------
- Read-out: CFLAR gene, CFLAR (gene 8837)
- procedure.summary: LTEA_HepaRG_CFLAR: Life Technologies and Expression Analysis (LTEA) Assay for CFLAR gene using HepaRG (AID 2283455)
- measurement.setup: mRNA level, 48 h; actives raise or lower the signal
Calls of active or inactive are those of the source. Rule for the calls: active = hit-call score of the fitted dose curve at least 0.9, where 1 is the maximum; inactive = score below 0.9.
Please answer using one outcome listed in active, inactive

Below are worked cases with known answers.
# molecule, group.label
records = [
    ("Cc1c(F)c(F)c(COC(=O)C2C(/C=C(\\Cl)C(F)(F)F)C2(C)C)c(F)c1F (configuration not stated)", "inactive"),
    ("COC(=O)C(C)Oc1ccc(Oc2ccc(Cl)cc2Cl)cc1 (configuration not stated)", "inactive"),
]

Prompt: Which outcome was entered for the molecule `C=CCC1=C(C)[C@@H](OC(=O)[C@@H]2[C@@H](C=C(C)C)C2(C)C)CC1=O` in this test?
Response: inactive

Prompt: Which outcome was entered for the molecule `COC(=O)C=C(C)OP(=O)(OC)OC` in this test?
Response: inactive

Prompt: Which outcome was entered for the molecule `CC1=C(C(=O)Nc2ccccc2)SCCO1` in this test?
Response: active

Prompt: Which outcome was entered for the molecule `CCc1nn(C)c(C(=O)NCc2ccc(C(C)(C)C)cc2)c1Cl` in this test?
Response: active

Prompt: Which outcome was entered for the molecule `N#Cc1cc(Br)c(O)c(Br)c1` in this test?
Response: active

Prompt: Which outcome was entered for the molecule N#Cc1nn(-c2c(Cl)cc(C(F)(F)F)cc2Cl)c(N)c1S(=O)C(F)(F)F (configuration not stated) in this test?
Response: active

----------
- Read-out: Transforming Growth Factor (TGFB1), TGFB1 (gene 7040)
- procedure.summary: LTEA_HepaRG_TGFB1: Life Technologies and Expression Analysis (LTEA) Assay for Transforming Growth Factor (TGFB1) Transporter using HepaRG (AID 2283533)
- measurement.setup: mRNA level, 48 h; actives raise or lower the signal
Activity calls are given as the source filed them. The calls were made as follows: active = hit-call score of the fitted dose curve at least 0.9, where 1 is the maximum; inactive = score below 0.9.
Please answer using one outcome listed in active, inactive

Below are worked cases with known answers.
# molecule, group.label
measured = [
    ("CCc1nn(C)c(C(=O)NCc2ccc(C(C)(C)C)cc2)c1Cl", "active"),
    ("COC(=O)c1ccccc1C(=O)OC", "inactive"),
    ("CNC(=S)S", "inactive"),
]

Prompt: Which outcome was entered for the molecule `COC(=O)N(OC)c1ccccc1COc1ccn(-c2ccc(Cl)cc2)n1` in this test?
Response: active

Prompt: Which outcome was entered for the molecule CC(Oc1ccc(Cl)cc1Cl)C(=O)O (stereo not given) in this test?
Response: inactive

Prompt: Which outcome was entered for the molecule `Oc1ccccc1-c1ccccc1` in this test?
Response: inactive

Prompt: Which outcome was entered for the molecule CCOC(=O)C(Cl)Cc1cc(-n2nc(C)n(C(F)F)c2=O)c(F)cc1Cl (stereo not given) in this test?
Response: inactive

Prompt: Which outcome was entered for the molecule `Cc1ccc(-c2c(Cl)nc(C#N)n2S(=O)(=O)N(C)C)cc1` in this test?
Response: inactive

Prompt: Which outcome was entered for the molecule `COc1cnc(OC)n2nc(NS(=O)(=O)c3c(OCC(F)F)cccc3C(F)(F)F)nc12` in this test?
Response: inactive

Prompt: Which outcome was entered for the molecule `CC(C)Oc1cc(-n2nc(C(C)(C)C)oc2=O)c(Cl)cc1Cl` in this test?
Response: inactive

----------
- Read-out: Cytochrome P450 3A4 (Homo sapiens) (UniProt P08684)
- Sequence (P08684 whole entry, looked up): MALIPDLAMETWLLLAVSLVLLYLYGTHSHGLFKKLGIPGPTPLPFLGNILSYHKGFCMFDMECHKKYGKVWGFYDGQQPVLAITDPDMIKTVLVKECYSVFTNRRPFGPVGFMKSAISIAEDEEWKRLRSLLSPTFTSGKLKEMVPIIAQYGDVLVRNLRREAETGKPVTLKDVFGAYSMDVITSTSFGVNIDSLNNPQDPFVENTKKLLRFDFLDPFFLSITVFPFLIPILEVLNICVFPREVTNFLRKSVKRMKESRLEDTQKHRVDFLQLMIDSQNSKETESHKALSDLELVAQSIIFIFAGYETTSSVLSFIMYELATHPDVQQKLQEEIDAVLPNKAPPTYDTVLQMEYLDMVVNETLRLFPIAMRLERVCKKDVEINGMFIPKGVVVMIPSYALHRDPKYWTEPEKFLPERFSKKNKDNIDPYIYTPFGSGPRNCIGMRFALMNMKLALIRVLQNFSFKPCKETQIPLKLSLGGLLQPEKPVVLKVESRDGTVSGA
- procedure.summary: CLD_CYP3A4_24hr: CellzDirect (CLD) Gene Expression Assay for xenobiotic metabolism (CYP3A4) at 24 hours (AID 2283689)
Records with an inconclusive call do not appear. Activity calls are given as the source filed them. Rule for the calls: active = hit-call score of the fitted dose curve at least 0.9, where 1 is the maximum; inconclusive = response in the unintended direction; inactive = score below 0.9.
Please answer using one outcome listed in true = active, false = inactive

# molecule, group.label
rows = [
    ("CCCCNC(=O)OCC#CI", "false"),
    ("COc1cnc(OC)n2nc(NS(=O)(=O)c3c(OCC(F)F)cccc3C(F)(F)F)nc12", "true"),
    ("O=C(O)COc1nc(Cl)c(Cl)cc1Cl", "false"),
    ("CC1COC(Cn2cncn2)(c2ccc(Oc3ccc(Cl)cc3)cc2Cl)O1 (stereo unspecified)", "true"),
    ("COc1nc(NC(C)C)nc(NC(C)C)n1", "true"),
]

Prompt: Which outcome was entered for the molecule `CCOc1cc(Oc2ccc(C(F)(F)F)cc2Cl)ccc1[N+](=O)[O-]` in this test?
Response: true

----------
- Read-out: Paternally Expressed 10 (PEG10), PEG10 (gene 23089)
- procedure.summary: LTEA_HepaRG_PEG10: Life Technologies and Expression Analysis (LTEA) Assay for Paternally Expressed 10 (PEG10) using HepaRG (AID 2283520);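 on AC50: differentiated HepaRG human liver cells in serum-free induction medium with 0.5% DMSO; PEG10 transcript by qRT-PCR normalised to ACTB GAPDH and POLR2A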
- measurement.setup: mRNA level, 48 h; actives raise or lower the signal
Activity calls are given as the source filed them. Rule for the calls: active = hit-call score of the fitted dose curve at least 0.9, where 1 is the maximum; inactive = score below 0.9.
observable: AC50

Record excerpt, results attached:
# compound, val
measured = [
    ("CS/C(C)=N/OC(=O)N(C)SN(C)C(=O)O/N=C(\\C)SC", "inactive"),
    ("Fc1ccc(Oc2ccnc3cc(Cl)cc(Cl)c23)cc1", "33.5 µM (active)"),
    ("Cc1c(F)c(F)c(COC(=O)C2C(/C=C(\\Cl)C(F)(F)F)C2(C)C)c(F)c1F (stereo not drawn)", "inactive"),
    ("Cc1cc(Cl)ccc1OCC(=O)O", "9.94 µM (active)"),
]

Please go through the list and note AC50 for each compound.
1. COc1ccc(C(c2ccc(OC)cc2)C(Cl)(Cl)Cl)cc1
2. OC(c1ccc(Cl)cc1)(c1cncnc1)c1ccccc1Cl (stereo not drawn)

Response:
["inactive", "5.86 µM (active)"]

Please go through the list and note AC50 for each compound.
1. CCNc1nc(Cl)nc(NCC)n1
2. Cc1ccc(-c2c(Cl)nc(C#N)n2S(=O)(=O)N(C)C)cc1

Response:
1. inactive
2. 7.7 µM (active)

Please go through the list and note AC50 for each compound.
1. Oc1ccccc1-c1ccccc1
2. CCCCNC(=O)OCC#CI
3. COC(=O)C(C)Oc1ccc(Oc2ccc(Cl)cc2Cl)cc1 (stereo not drawn)
4. CCNc1nc(Cl)nc(NC(C)C)n1
5. COC(=O)C=C(C)OP(=O)(OC)OC

Response:
inactive
inactive
10.4 µM (active)
inactive
inactive

Values compiled from PubChem BioAssay (EPA / NIEHS).
